Each recorded value in this set is attributed to PubChem BioAssay (NCI).

system: OVCAR-8 ovarian; experiment: NCI tumour cell line growth inhibition, 48 h
Quick list: GI50 per entry.

MOLECULE: COc1cc2c3c(n(CCCN)c(=O)c2cc1OC)-c1ccccc1C3=O
GI50: 0.455 µM

Data request: Return reported GI50; argument: COc1cc(C(=O)/C=C/c2c(C)n([O-])c3ccc(C)cc3[n+]2=O)cc(OC)c1OC
Data returned: 3.46 µM

Data request: Using the record for Cc1ccc([N+](=O)[O-])cc1NC(=O)Nc1cccc(F)c1 , report its GI50.
Data returned: 4.24 µM

----------
tested on: SF-268 CNS; assay: NCI tumour cell line growth inhibition, 48 h
METRIC: TGI

Guide cases for TGI, answers given:
COMPOUND: COc1cc(/C=C/c2ccncc2)cc(OC)c1OC
EXPERIMENTAL TARGET: SF-268 CNS
TGI: > 100 µM
--
COMPOUND: CC(C)(C)OC(=O)NCCCCC(N)C(N)=O (stereo not drawn)
EXPERIMENTAL TARGET: SF-268 CNS
TGI: > 100 µM

Could you now look at the following compound, please?
Data request: // TGI lookup, key: CC1(C)CC(=O)C(CCC(=O)/C=C/c2ccccc2)C(=O)C1
Data returned: > 100 µM

----------
Each item that follows carries a reported TGI.
tested on: SF-295 CNS; assay: NCI tumour cell line growth inhibition, 48 h

The examples below pair each entry with its known result.
MOLECULE: CS(=O)(=O)c1ccc(/C=N/NC(N)=S)cc1
EXPERIMENTAL TARGET: SF-295 CNS
TGI: > 100 µM
--
MOLECULE: CCOC(=O)c1ccc2[nH]c(-c3ccc(S(=O)(=O)F)cc3)cc(=O)c2c1
EXPERIMENTAL TARGET: SF-295 CNS
TGI: > 100 µM

Consider the additional compound presented here.
Data request: Quick one: TGI for NC(=O)c1nnc2ccc(F)cc2c1N ?
Data returned: > 100 µM

----------
tested on: COLO 205 colon; assay: NCI tumour cell line growth inhibition, 48 h
The reader will find reported TGI values listed item by item below.

COMPOUND: COc1cc(C2SCC(=O)N2c2cc(Cl)c(Cl)cc2Cl)cc(OC)c1OC (configuration not stated)
TGI: > 100 µM
//
COMPOUND: CN(Cc1cnc2nc(N)nc(N)c2n1)c1ccc(C(=O)NC(CCC(=O)O)C(=O)O)cc1C(F)(F)F (configuration not stated)
TGI: > 100 µM
//
COMPOUND: Brc1ccc2[nH]cc(-c3csc(-c4ccccn4)n3)c2c1
TGI: > 56.3 µM
//
COMPOUND: CC1(C)CC23C4COC(=O)C2CCC1C3CC4=O (configuration not stated)
TGI: 33.6 µM
//
COMPOUND: Nc1cc2c3c(c1)Oc1cc(N)cc4c1C3c1c(cc(N)cc1O4)O2
TGI: 34.3 µM

Data request: Which measured TGI value corresponds to CC(=O)[C@@H]1[C@@H](OC(=O)CCC(C)COC2OC(CO)C(O)C(O)C2O)C[C@H]2[C@@H]3CC=C4C[C@@H](OC5OC(CO)C(OC6OC(C)C(O)C(O)C6O)C(O)C5OC5OC(C)C(O)C(O)C5O)CC[C@]4(C)[C@H]3CC[C@]12C (some centres not stated) ?
Data returned: > 100 µM

Data request: Which value of TGI has been reported for OCC1OC(n2nc(-c3ccccc3)nc2-c2cnccn2)C(O)C(O)C1O (configuration not stated) in the records?
Data returned: > 100 µM

Data request: Could you tell me which TGI is on file for CN(C)c1ccc2c(=O)c3ccccc3oc2n1 ?
Data returned: > 100 µM

Data request: Need TGI of COc1ccc2oc(=O)cc(C(c3ccc[nH]3)c3ccc[nH]3)c2c1 , thanks.
Data returned: 0.549 µM

Data request: Any idea what TGI was measured for CC1(C)CCC[C@@]2(C)C1CCC1(C)C(CCc3ccoc3)/C(=C/OS(=O)(=O)O)CCC12 (some centres not stated) (tested in a mixture with another compound) ?
Data returned: > 100 µM

Data request: I am curious: what TGI value has been reported for Clc1ncnc(Cl)c1Cl ?
Data returned: > 100 µM

Data request: Consider the compound CC1(C)[C@H](C(=O)O)N2C(=O)[C@@H](NS(=O)(=O)c3ccc([N+](=O)[O-])cc3)[C@H]2S1(=O)=O and give its measured TGI.
Data returned: > 100 µM
